Origin of measurements: patent US9108921B2

Biological target: PKR R532W (Homo sapiens, UniProt P30613, R532W)
Sequence (P30613 whole entry R532W): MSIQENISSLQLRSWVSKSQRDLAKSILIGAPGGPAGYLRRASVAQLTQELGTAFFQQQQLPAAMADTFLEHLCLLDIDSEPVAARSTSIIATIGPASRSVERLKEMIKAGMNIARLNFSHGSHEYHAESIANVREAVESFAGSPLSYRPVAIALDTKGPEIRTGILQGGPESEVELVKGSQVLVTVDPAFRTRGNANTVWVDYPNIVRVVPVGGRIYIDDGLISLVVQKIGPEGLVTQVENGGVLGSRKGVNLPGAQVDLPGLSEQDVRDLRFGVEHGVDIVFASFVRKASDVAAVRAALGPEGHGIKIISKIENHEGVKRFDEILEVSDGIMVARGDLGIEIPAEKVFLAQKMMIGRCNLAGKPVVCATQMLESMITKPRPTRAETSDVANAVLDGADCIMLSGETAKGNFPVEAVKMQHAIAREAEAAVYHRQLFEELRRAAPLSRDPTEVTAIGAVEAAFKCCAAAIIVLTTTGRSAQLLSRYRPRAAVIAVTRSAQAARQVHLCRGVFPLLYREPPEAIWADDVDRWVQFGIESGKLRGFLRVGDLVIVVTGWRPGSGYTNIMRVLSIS
Assay: PKR Mutant Assay, AC50 against PKR R532W
Assay type: biochemical
Details: mutant PKR R532W enzyme
result type: AC50

Notebook: O=C(c1ccc(NS(=O)(=O)c2cccc3nc(F)ccc23)cc1)N1CCC(O)(c2ccccc2Cl)CC1 , AC50 read as 101 to 1000 nM

Notebook: Nc1nc2c(S(=O)(=O)Nc3ccc(C(=O)N4CCC(O)(/C=C/CC(F)(F)F)CC4)cc3)cccc2s1 , AC50 read as 101 to 1000 nM

Notebook: O=C(c1ccc(NS(=O)(=O)c2cccc3cccnc23)cc1)N1CCC(CO)(Cc2ccccc2)CC1 , AC50 read as < 100 nM

Notebook: O=C(c1ccc(NS(=O)(=O)c2cccc3scnc23)cc1)N1CCC(O)(Cc2ccccc2C(F)(F)F)CC1 [Compound 412] , AC50 read as < 100 nM

Notebook: CC(C)(C)C1(O)CCN(C(=O)c2ccc(NS(=O)(=O)c3cccc4cccnc34)cc2)CC1 , AC50 read as < 100 nM

====

Biological target: PKR WT (Homo sapiens, UniProt P30613)
Sequence (P30613 whole entry): as the sequence (P30613 whole entry R532W) above, with W532R counted along it
Assay: PKR WT cell based AC50 assay
Conditions: wild type PKR
result type: AC50

Illustrative cases are given below, each with its answer.
O=C(c1ccc(NS(=O)(=O)c2cccc3cccnc23)cc1)N1CCC(O)(c2cc(F)ccc2Cl)CC1 [Compound 166] ... < 100 nM
O=C(c1ccc(NS(=O)(=O)c2cccc3cccnc23)cc1)N1CCC(O)(c2cccc(C(F)(F)F)n2)CC1 [Compound 174] ... < 100 nM
Cc1ncccc1C1(O)CCN(C(=O)c2ccc(NS(=O)(=O)c3cccc4cccnc34)cc2)CC1 [Compound 147] ... < 100 nM
Nc1nc2c(S(=O)(=O)Nc3ccc(C(=O)N4CCC(O)(/C=C/CC(F)(F)F)CC4)cc3)cccc2s1 [Compound 425] ... < 100 nM
O=C(c1ccc(NS(=O)(=O)c2cccc3cccnc23)cc1)N1CCC(O)(CC2CC2)CC1 [Compound 144] ... < 100 nM

Notebook: CC(CC1(O)CCN(C(=O)c2ccc(NS(=O)(=O)c3cccc4scnc34)cc2)CC1)C(F)F (stereo not shown) [Compound 405] , AC50 read as 101 to 1000 nM

Notebook: Cc1cccc(CC2(O)CCN(C(=O)c3ccc(NS(=O)(=O)c4cccc5cccnc45)cc3)CC2)n1 [Compound 207] , AC50 read as 101 to 1000 nM

====

AC50 for assorted compounds
Biological target: PKR R532W (Homo sapiens, UniProt P30613, R532W)
Assay: PKR Mutant Assay, AC50 against PKR R532W
Type: biochemical
Details: mutant PKR R532W enzyme

O=C(c1ccc(NS(=O)(=O)c2cccc3cccnc23)c(F)c1F)N1CCC(O)(c2ccccc2)CC1 ... 1010 to 10000 nM

Notebook: CC(C)CC1(O)CCN(C(=O)c2ccc(NS(=O)(=O)c3cccc4nc(N)cnc34)cc2)CC1 , AC50 read as < 100 nM

Notebook: O=C(c1ccc(NS(=O)(=O)c2cccc3cccnc23)cc1)N1CCC(O)(Cc2cccnc2F)CC1 , AC50 read as < 100 nM

Notebook: CCCCC1(O)CCN(C(=O)c2ccc(NS(=O)(=O)c3cccc4cccnc34)cc2)CC1 , AC50 read as < 100 nM

Notebook: O=C(c1ccc(N[S+]([O-])c2cccc3cccnc23)cc1)N1CCC(O)(c2ccccc2Cl)CC1 (stereo not drawn) , AC50 read as 1010 to 10000 nM

Notebook: Cc1nc2c(S(=O)(=O)Nc3ccc(C(=O)N4CCC(O)(c5ccccc5Cl)CC4)cc3)cccc2o1 , AC50 read as < 100 nM

Notebook: O=C(c1ccc(NS(=O)(=O)c2ccc3c(c2)OCO3)cc1)N1CCC(O)(Cc2ccccc2)CC1 , AC50 read as 1010 to 10000 nM

Notebook: CC(C)CC1(O)CCN(C(=O)c2ccc(NS(=O)(=O)c3ccc(F)c(N)c3N)cc2)CC1 , AC50 read as 101 to 1000 nM

Notebook: N#Cc1cc(NS(=O)(=O)c2cccc3cccnc23)ccc1C(=O)N1CCC(O)(c2ccccc2Cl)CC1 , AC50 read as < 100 nM

Notebook: O=C(c1ccc(NS(=O)(=O)c2cccc3cccnc23)cc1)N1CCC(O)(CC2CC2(F)F)CC1 (stereo not drawn) , AC50 read as < 100 nM

Notebook: O=C(c1ccc(NS(=O)(=O)c2cccc3cccnc23)cc1)N1CCC(O)(c2cccc(F)n2)CC1 , AC50 read as 101 to 1000 nM

Notebook: CC(C)CC1(CO)CCN(C(=O)c2ccc(NS(=O)(=O)c3cccc4nccnc34)cc2)CC1 , AC50 read as < 100 nM

====

Biological target: PKR WT (Homo sapiens, UniProt P30613)
Test: PKR WT cell based AC50 assay
Settings: wild type PKR
result type: AC50

Illustrative cases are given below, each with its answer.
O=C(c1ccc(NS(=O)(=O)c2cccc3cccnc23)c2ccccc12)N1CCC(O)(c2ccccc2Cl)CC1 [Compound 226] ... 0.101 to 1 µM
O=C(c1ccc(NS(=O)(=O)c2cccc3cccnc23)cc1)N1CCC(O)(c2ncccc2F)CC1 [Compound 148] ... 0.101 to 1 µM

Let us examine a further case.
Notebook: O=C(c1ccc(NS(=O)(=O)c2cc(F)cc3cccnc23)cc1)N1CCC(O)(c2ccccc2)CC1 [Compound 196] , AC50 read as 0.101 to 1 µM

====

Biological target: PKR R532W (Homo sapiens, UniProt P30613, R532W)
Assay: PKR Mutant Assay, AC50 against PKR R532W
Assay type: biochemical
Conditions: mutant PKR R532W enzyme
AC50 for assorted compounds

O=C(c1ccc(NS(=O)(=O)c2cccc3c2OC(F)(F)O3)cc1)N1CCC(O)(c2ccccc2Cl)CC1 [Compound 308] ... 1010 to 10000 nM
C=C(CC1(O)CCN(C(=O)c2ccc(NS(=O)(=O)c3cccc4scnc34)cc2)CC1)C(F)(F)F [Compound 390] ... < 100 nM
O=C(c1ccc(NS(=O)(=O)c2cccc3nccnc23)cc1)N1CCC(O)(CCC(F)=C(F)F)CC1 [Compound 398] ... < 100 nM

Notebook: CCC1(O)CCN(C(=O)c2ccc(NS(=O)(=O)c3cccc4cccnc34)cc2)CC1 [Compound 267] , AC50 read as 101 to 1000 nM

====

Biological target: PKR R532W (Homo sapiens, UniProt P30613, R532W)
Experiment: PKR Mutant Assay, AC50 against PKR R532W
Assay type: biochemical
Settings: mutant PKR R532W enzyme
result type: AC50

Illustrative cases are given below, each with its answer.
COc1nc(C(=O)N2CCC(O)(c3ccccc3)CC2)ccc1NS(=O)(=O)c1cccc2cccnc12 [Compound 304] ... 1010 to 10000 nM
O=C(c1ccc(NS(=O)(=O)c2cccc3cccnc23)cc1)N1CCC(O)(c2ccccc2)CC1 [Compound 156] ... < 100 nM
Nc1nc2c(S(=O)(=O)Nc3ccc(C(=O)N4CCC(O)(CCCC(F)(F)F)CC4)cc3)cccc2s1 [Compound 420] ... < 100 nM

Notebook: O=C(c1ccc(NS(=O)(=O)c2cccc3cccnc23)cc1)N1CCC(O)(c2ccc(F)cc2)CC1 [Compound 194] , AC50 read as < 100 nM

====

Molecular target: PKR WT (Homo sapiens, UniProt P30613)
Assay: PKR WT enzymatic AC50 assay
Format: biochemical
Conditions: wild type PKR
AC50 for assorted molecules

Illustrative cases are given below, each with its answer.
O=C(c1ccc(NS(=O)(=O)c2cccc3cccnc23)cc1)N1CCC(O)(c2ccncc2Cl)CC1 ... < 0.1 µM
Cc1nc2c(S(=O)(=O)Nc3ccc(C(=O)N4CCC(O)(CC(C)C)CC4)cc3)cccc2o1 ... 0.101 to 1 µM
O=C(c1ccc(NS(=O)(=O)c2cccc3cccnc23)cc1)N1CCC(O)(c2cc(F)ccc2Cl)CC1 ... < 0.1 µM
O=C(c1ccc(NS(=O)(=O)c2c(F)ccc3ncsc23)cc1)N1CCC(O)(c2ccccc2Cl)CC1 ... 1.01 to 10 µM
O=C(c1ccc(NS(=O)(=O)c2cccc3cccnc23)cc1)N1CCC(O)(Cc2cccc(F)n2)CC1 ... < 0.1 µM

Notebook: CC(C)CC1(O)CCN(C(=O)c2ccc(NS(=O)(=O)c3cccc4ccc(N)nc34)cc2)CC1 , AC50 read as < 0.1 µM

Notebook: O=C(c1ccc(NS(=O)(=O)c2ccc(F)c3cccnc23)cc1)N1CCC(O)(Cc2ccccc2F)CC1 , AC50 read as < 0.1 µM

Notebook: CC(F)(F)CCC1(O)CCN(C(=O)c2ccc(NS(=O)(=O)c3cccc4nccnc34)cc2)CC1 , AC50 read as < 0.1 µM

Notebook: O=C(c1ccc(NS(=O)(=O)c2cccc3cccnc23)cc1)N1CCC(O)(c2cccc(C(F)(F)F)c2)CC1 , AC50 read as < 0.1 µM

Notebook: O=C(c1ccc(NS(=O)(=O)c2cccc(C(F)(F)F)c2)cc1)N1CCC(O)(Cc2ccccc2)CC1 , AC50 read as 0.101 to 1 µM

Notebook: O=C(c1ccc(NS(=O)(=O)c2cccc3scnc23)cc1)N1CCC(O)(Cc2ccccc2C(F)(F)F)CC1 [Compound 125] , AC50 read as < 0.1 µM

Notebook: Nc1nc2c(S(=O)(=O)Nc3ccc(C(=O)N4CCC(O)(CCCC(F)(F)F)CC4)cc3)cccc2s1 , AC50 read as < 0.1 µM

Notebook: O=C(c1ccc(NS(=O)(=O)c2cccc3cccnc23)cc1)N1CCC(O)(c2cnsc2)CC1 [Compound 180] , AC50 read as < 0.1 µM

Notebook: O=C(c1ccc(NS(=O)(=O)c2cccc3scnc23)cc1)N1CCC(O)(Cc2ccccc2C(F)(F)F)CC1 [Compound 412] , AC50 read as < 0.1 µM

Notebook: CC(C)CC1(O)CCN(C(=O)c2ccc(NS(=O)(=O)Cc3ccccn3)cc2)CC1 , AC50 read as > 10 µM
